The following molecules are shown together with reported IC50 values.
Target: HLA-DRB1*01:01 (Homo sapiens, UniProt P01903+P01911, A100R/D57E/F55L/F60I/F76Y/I96L/L162R/M171V/P40L/Q125E/R42F/V115G/Y59C)
Construct: EBV transformed homozygous cell lines were used as sources of MHC molecules; endogenous in cells; host or cells: EBV transformed homozygous cell lines
Assay: HLA class II peptide binding, inhibition of radiolabeled peptide binding to purified MHC
Conditions: citrullinated 15-mer (X); purified MHC, inhibition of radiolabeled peptide binding; dash = IC50 >40,000 nM; read-out: DRB1*01:01 binding capacity, Cit peptide (IC50 nM)
Square brackets hold non-standard residues; d marks the D form. Peptide text beside a SMILES is read from it. Cit = NC(=O)NCCC[C@H](N)C(=O)O
measurement-name: IC50 (nM)

[
  {
    "molecule": "CSCC[C@H](NC(=O)[C@H](CCC(=O)O)NC(=O)[C@H](CCC(=O)O)NC(=O)[C@@H](N)CCC(=O)O)C(=O)N[C@@H](CCCNC(=N)N)C(=O)N[C@@H](CCC(=O)O)C(=O)N[C@@H](CC(C)C)C(=O)N[C@@H](CCCNC(N)=O)C(=O)N[C@@H](CCCNC(=N)N)C(=O)N[C@@H](CCC(N)=O)C(=O)N[C@H](C(=O)N[C@@H](CC(=O)O)C(=O)N[C@@H](CCC(N)=O)C(=O)N[C@@H](CC(C)C)C(=O)N[C@H](C(=O)O)[C@@H](C)O)C(C)C [EEEMRELXRQVDQLT] (H-EEEMREL[Cit]RQVDQLT-OH)",
    "relation-qualifier": "=",
    "numeric-result": 1490
  },
  {
    "molecule": "CC(C)C[C@H](NC(=O)[C@H](C)NC(=O)[C@H](CC(=O)O)NC(=O)[C@H](CC(N)=O)NC(=O)[C@H](CC(N)=O)NC(=O)[C@H](CCCNC(=N)N)NC(=O)[C@H](CC(N)=O)NC(=O)[C@H](C)NC(=O)[C@H](C)N)C(=O)N[C@@H](CCCNC(N)=O)C(=O)N[C@@H](CCC(N)=O)C(=O)N[C@@H](C)C(=O)N[C@@H](CCCCN)C(=O)N[C@@H](CCC(N)=O)C(=O)N[C@@H](CCC(=O)O)C(=O)O [AANRNNDALXQAKQE] (H-AANRNNDAL[Cit]QAKQE-OH; N-terminus and C-terminus assumed)",
    "relation-qualifier": ">",
    "numeric-result": 40000
  }
]
